- target of assay: human COX-1 (Homo sapiens, UniProt P23219)
- Sequence (P23219 24-599): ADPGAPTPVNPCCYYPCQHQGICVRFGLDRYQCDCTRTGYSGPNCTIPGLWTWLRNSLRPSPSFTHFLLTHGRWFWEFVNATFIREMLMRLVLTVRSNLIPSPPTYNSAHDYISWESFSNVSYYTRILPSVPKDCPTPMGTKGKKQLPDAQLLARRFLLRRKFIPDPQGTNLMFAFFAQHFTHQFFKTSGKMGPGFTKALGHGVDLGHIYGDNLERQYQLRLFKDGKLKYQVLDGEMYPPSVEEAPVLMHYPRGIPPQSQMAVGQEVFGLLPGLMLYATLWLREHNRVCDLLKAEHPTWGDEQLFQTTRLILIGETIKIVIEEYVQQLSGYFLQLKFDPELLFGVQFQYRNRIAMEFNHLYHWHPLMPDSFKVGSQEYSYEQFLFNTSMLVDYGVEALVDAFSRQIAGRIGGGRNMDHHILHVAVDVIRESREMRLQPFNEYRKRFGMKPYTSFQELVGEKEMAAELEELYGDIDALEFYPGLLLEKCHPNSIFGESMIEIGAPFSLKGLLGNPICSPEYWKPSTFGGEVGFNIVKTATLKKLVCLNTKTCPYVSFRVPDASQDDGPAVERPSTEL
- measurement notes: Inhibition of PGE2 release in COS cells stably transfected with human COX-1
- conditions: COS cells transfected with human COX-1; 1 hour preincubation, 30 μM arachidonic acid for 15 minutes, PGE2 by enzyme immunoassay
pIC50: −log10 of the molar value.
measured quantity: pIC50

Sample records with pIC50:
[[record]]
compound = "N#Cc1ccc2c(-c3ccc(S(N)(=O)=O)cc3)c(-c3ccc(F)cc3)nn2c1 [Example 1(iv)]"
result = 4.68

[[record]]
compound = "NS(=O)(=O)c1ccc(-c2c(-c3cccc(F)c3)nn3cc(Cl)ccc23)cc1 [Example 7]"
result = 5.17


[a] NS(=O)(=O)c1ccc(-c2c(-c3ccc(F)cc3)nn3cc(Br)ccc23)cc1 [Example 3(vi)]
[b] NS(=O)(=O)c1ccc(-c2c(-c3ccc(F)cc3)nn3cc(Cl)ccc23)cc1 [Example 5(vi)]
// query Lab note: check whether a or b shows the higher recorded pIC50. API: response body contains the label of the selected item.
// result a

* * *

Examples of compounds with documented pIC50 follow.
- target of assay: human COX-1 (Homo sapiens)
- measurement notes: Inhibition of PGE2 release in COS cells stably transfected with human COX-1
- conditions: COS cells transfected with human COX-1; 1 hour preincubation, 30 μM arachidonic acid for 15 minutes, PGE2 by enzyme immunoassay
pIC50: −log10 of the molar value.

Sample records with pIC50:
[[record]]
smiles_entry = "CS(=O)(=O)c1ccc(-c2c(-c3ccc(F)cc3)nn3cc(Br)ccc23)cc1"
measured_quantity = "pIC50"
result = "< 4.00"

[[record]]
smiles_entry = "CS(=O)(=O)c1ccc(-c2c(-c3ccc(F)cc3)nn3cc(C#N)ccc23)cc1"
measured_quantity = "pIC50"
result = "< 4.00"

[[record]]
smiles_entry = "NS(=O)(=O)c1ccc(-c2c(-c3ccccc3)nn3cc(Cl)ccc23)cc1"
measured_quantity = "pIC50"
result = "< 4.00"


Here's the next entry for you.
// query Quick check: pIC50 of `CCOc1ccc(-c2nn3cc(Cl)ccc3c2-c2ccc(S(N)(=O)=O)cc2)cc1` ?
// result < 4.00

Origin of values: patent US6498166B1
